- Assay details: Pharmacokinetic assay in mouse
- Type: in vivo, ICR mice
- Conditions used: mouse, plasma, po; male ICR mice, intragastric administration, 10 mg/kg
Property label: Tmax (h)
State the answer as a number, implicitly in h.

Which measured Tmax value corresponds to Cc1cnc(-c2cc(O[C@H](C)[C@@H](C)O)cc(C(=O)N[C@H](C)c3cnc(C(F)(F)F)nc3)c2F)s1 [Compound I-30] ?
1

Which measured Tmax value corresponds to Cc1cnc(-c2cc(O[C@H](C)[C@H](C)O)cc(C(=O)N[C@H](C)c3cnc(C(F)(F)F)nc3)c2F)s1 [Compound I-29] ?
1

Which measured Tmax value corresponds to Cc1cnc(-c2cc(O[C@@H]3CCOC3)cc(C(=O)N[C@H](C)c3cnc(C(F)(F)F)nc3)c2F)s1 [Compound I-1] ?
2

Below: the item to evaluate.
Which measured Tmax value corresponds to Cc1cnc(-c2cc(O[C@@H](C)[C@H](C)O)cc(C(=O)N[C@H](C)c3cnc(C(F)(F)F)nc3)c2F)s1 [Compound I-28] ?
0.5

---

- Test system: rat taste
- Assay details: Taste test in rat (water vs 0.3 mM aqueous quinine solution intake)
- Type: in vivo, SD rats
- Conditions used: SD rats, 30 mg/kg i.p, 0.3 mM quinine, 15 min supply half an hour after administration
Property label: Water/aqueous quinine solution (ratio of water intake to aqueous quinine solution intake)
Please reply with the value in numeric form only.

Some compounds with known Water/aqueous quinine solution (ratio of water intake to aqueous quinine solution intake) results, for comparison:
Which measured Water/aqueous quinine solution (ratio of water intake to aqueous quinine solution intake) value corresponds to Cc1cnc(-c2cc(O[C@H](C)[C@H](C)O)cc(C(=O)N[C@H](C)c3cnc(C(F)(F)F)nc3)c2F)s1 [Compound I-29] ?
12.0

Which measured Water/aqueous quinine solution (ratio of water intake to aqueous quinine solution intake) value corresponds to Cc1cnc(-c2cc(O[C@@H](C)[C@H](C)O)cc(C(=O)N[C@H](C)c3cnc(C(F)(F)F)nc3)c2F)s1 [Compound I-28] ?
15.4

Which measured Water/aqueous quinine solution (ratio of water intake to aqueous quinine solution intake) value corresponds to Cc1cnc(-c2cc(O[C@H](C)[C@@H](C)O)cc(C(=O)N[C@H](C)c3cnc(C(F)(F)F)nc3)c2F)s1 [Compound I-30] ?
22.9

Which measured Water/aqueous quinine solution (ratio of water intake to aqueous quinine solution intake) value corresponds to Cc1cnc(-c2cc(O[C@@H](C)[C@@H](C)O)cc(C(=O)N[C@H](C)c3cnc(C(F)(F)F)nc3)c2F)s1 [Compound I-27] ?
29.4

Below: the item to evaluate.
Which measured Water/aqueous quinine solution (ratio of water intake to aqueous quinine solution intake) value corresponds to Cc1cnc(-c2cc(O[C@@H]3CCOC3)cc(C(=O)N[C@H](C)c3cnc(C(F)(F)F)nc3)c2F)s1 [Compound I-1] ?
18.2

---

- Assay details: Pharmacokinetic assay in canine
- Assay type: in vivo, Beagle dogs
- Conditions used: dog, plasma, po; male Beagle dogs, intragastric administration, 5 mg/kg
- Procedure: For a canine pharmacokinetic assay, male Beagle dogs (8 kg to 10 kg) were selected and fasted overnight. Three Beagle dogs were intragastrically administered with 5 mg/kg of the corresponding compound. Another 3 Beagle dogs were intravenously administered with 1 mg/kg of the corresponding compound. […] The primary pharmacokinetic parameters were analyzed by WinNonlin 7.0 software non-atrioventricular model.
Property label: Tmax (h)
State the answer as a number, implicitly in h.

Which measured Tmax value corresponds to Cc1cnc(-c2cc(O[C@H](C)[C@H](C)O)cc(C(=O)N[C@H](C)c3cnc(C(F)(F)F)nc3)c2F)s1 [Compound I-29] ?
1

Continuing:
Which measured Tmax value corresponds to Cc1cnc(-c2cc(O[C@H](C)[C@@H](C)O)cc(C(=O)N[C@H](C)c3cnc(C(F)(F)F)nc3)c2F)s1 [Compound I-30] ?
1

---

# Cmax listing for each entry below
- Assay details: Pharmacokinetic assay in canine
- Format: in vivo, Beagle dogs
- Conditions used: dog, plasma, po; male Beagle dogs, intragastric administration, 5 mg/kg
- Procedure: For a canine pharmacokinetic assay, male Beagle dogs (8 kg to 10 kg) were selected and fasted overnight. Three Beagle dogs were intragastrically administered with 5 mg/kg of the corresponding compound. Another 3 Beagle dogs were intravenously administered with 1 mg/kg of the corresponding compound. […] The primary pharmacokinetic parameters were analyzed by WinNonlin 7.0 software non-atrioventricular model.
State the answer as a number, implicitly in ng/mL.

Which measured Cmax value corresponds to `Cc1cnc(-c2cc(O[C@H](C)[C@H](C)O)cc(C(=O)N[C@H](C)c3cnc(C(F)(F)F)nc3)c2F)s1` ?
1160

Below: the item to evaluate.
Which measured Cmax value corresponds to `Cc1cnc(-c2cc(O[C@H](C)[C@@H](C)O)cc(C(=O)N[C@H](C)c3cnc(C(F)(F)F)nc3)c2F)s1` ?
1030

---

- Assay details: Pharmacokinetic assay in rat
- Type: in vivo, SD rats
- Conditions used: rat, plasma, po; male SD rats, intragastric administration, 10 mg/kg
# Tmax listing for each entry below
State the answer as a number, implicitly in h.

Which measured Tmax value corresponds to Cc1cnc(-c2cc(O[C@@H]3CCOC3)cc(C(=O)N[C@H](C)c3cnc(C(F)(F)F)nc3)c2)s1 [Reference compound 1, reference compound] ?
2

Below: the item to evaluate.
Which measured Tmax value corresponds to `Cc1cnc(-c2cc(O[C@@H]3CCOC3)cc(C(=O)N[C@H](C)c3cnc(C(F)(F)F)nc3)c2F)s1` ?
4

---

- Assay details: Pharmacokinetic assay in canine
- Assay type: in vivo, Beagle dogs
- Conditions used: dog, plasma; male Beagle dogs, intravenous administration, 1 mg/kg
Property label: AUC(0-t) (ng·h/mL)
State the answer as a number, implicitly in ng·h/mL.

Which measured AUC(0-t) value corresponds to Cc1cnc(-c2cc(O[C@H](C)[C@@H](C)O)cc(C(=O)N[C@H](C)c3cnc(C(F)(F)F)nc3)c2F)s1 [Compound I-30] ?
2820

Below: the item to evaluate.
Which measured AUC(0-t) value corresponds to Cc1cnc(-c2cc(O[C@H](C)[C@H](C)O)cc(C(=O)N[C@H](C)c3cnc(C(F)(F)F)nc3)c2F)s1 [Compound I-29] ?
2010

---

- Assay details: Pharmacokinetic assay in canine
- Format: in vivo, Beagle dogs
- Conditions used: dog, plasma; male Beagle dogs, intravenous administration, 1 mg/kg; read-out: Vz
Property label: Vd (L/kg)
State the answer as a number, implicitly in L/kg.

Which measured Vd value corresponds to `Cc1cnc(-c2cc(O[C@H](C)[C@@H](C)O)cc(C(=O)N[C@H](C)c3cnc(C(F)(F)F)nc3)c2F)s1` ?
4.88

Below: the item to evaluate.
Which measured Vd value corresponds to `Cc1cnc(-c2cc(O[C@H](C)[C@H](C)O)cc(C(=O)N[C@H](C)c3cnc(C(F)(F)F)nc3)c2F)s1` ?
5

---

# Cmax listing for each entry below
- Assay details: Pharmacokinetic assay in rat
- Format: in vivo, SD rats
- Conditions used: rat, plasma, po; male SD rats, intragastric administration, 10 mg/kg
State the answer as a number, implicitly in ng/mL.

Which measured Cmax value corresponds to `Cc1cnc(-c2cc(O[C@@H]3CCOC3)cc(C(=O)N[C@H](C)c3cnc(C(F)(F)F)nc3)c2F)s1` ?
569

Continuing:
Which measured Cmax value corresponds to Cc1cnc(-c2cc(O[C@@H]3CCOC3)cc(C(=O)N[C@H](C)c3cnc(C(F)(F)F)nc3)c2)s1 [Reference compound 1, reference compound] ?
417

---

- Assay details: Pharmacokinetic assay in rat
- Format: in vivo, SD rats
- Conditions used: rat, plasma, po; male SD rats, intragastric administration, 10 mg/kg; read-out: T½ (converted)
# half-life listing for each entry below
Please answer using a numeric value trailed by its unit.

Which measured half-life value corresponds to Cc1cnc(-c2cc(O[C@@H]3CCOC3)cc(C(=O)N[C@H](C)c3cnc(C(F)(F)F)nc3)c2F)s1 [Compound I-1] ?
3.61 h

Below: the item to evaluate.
Which measured half-life value corresponds to Cc1cnc(-c2cc(O[C@@H]3CCOC3)cc(C(=O)N[C@H](C)c3cnc(C(F)(F)F)nc3)c2)s1 [Reference compound 1, reference compound] ?
4.01 h

---

# AUC(0-t) listing for each entry below
- Assay details: Pharmacokinetic assay in canine
- Assay type: in vivo, Beagle dogs
- Conditions used: dog, plasma, po; male Beagle dogs, intragastric administration, 5 mg/kg
State the answer as a number, implicitly in ng·h/mL.

Which measured AUC(0-t) value corresponds to `Cc1cnc(-c2cc(O[C@H](C)[C@H](C)O)cc(C(=O)N[C@H](C)c3cnc(C(F)(F)F)nc3)c2F)s1` ?
8730

Continuing:
Which measured AUC(0-t) value corresponds to `Cc1cnc(-c2cc(O[C@H](C)[C@@H](C)O)cc(C(=O)N[C@H](C)c3cnc(C(F)(F)F)nc3)c2F)s1` ?
12600
